target: recombinant pentameric gH complex (Towne strain) (human cytomegalovirus, Towne strain) (UniProt P17176); assay: BLI competition on His-pentamer; competitor (antibody 2): 270.7
Sequence (P17176 30-715, one chain of several): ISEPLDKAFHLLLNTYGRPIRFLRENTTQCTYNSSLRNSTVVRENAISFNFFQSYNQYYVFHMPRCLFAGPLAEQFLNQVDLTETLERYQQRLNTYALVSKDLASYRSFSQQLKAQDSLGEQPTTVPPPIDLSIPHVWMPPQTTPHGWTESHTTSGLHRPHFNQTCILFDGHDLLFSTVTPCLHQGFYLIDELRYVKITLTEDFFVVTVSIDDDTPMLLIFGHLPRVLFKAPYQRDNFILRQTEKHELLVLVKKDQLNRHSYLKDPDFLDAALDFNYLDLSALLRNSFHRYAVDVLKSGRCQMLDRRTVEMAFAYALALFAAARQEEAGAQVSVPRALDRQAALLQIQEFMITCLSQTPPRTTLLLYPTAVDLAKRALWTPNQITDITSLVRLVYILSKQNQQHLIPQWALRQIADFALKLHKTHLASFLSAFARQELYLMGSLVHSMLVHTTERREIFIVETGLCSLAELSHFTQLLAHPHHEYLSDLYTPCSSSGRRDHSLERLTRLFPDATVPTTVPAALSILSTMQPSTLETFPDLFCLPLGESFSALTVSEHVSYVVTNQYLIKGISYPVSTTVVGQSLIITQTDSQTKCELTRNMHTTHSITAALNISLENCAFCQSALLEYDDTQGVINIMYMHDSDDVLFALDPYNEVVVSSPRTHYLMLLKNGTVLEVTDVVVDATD
Catalogue of Pair-wise inhibition (%) readings, one per entry.
Expressed in %, but write only the number.

Reference set (2 entries):
>  <BINDER>
1-85 (antibody, V domains shown) VH: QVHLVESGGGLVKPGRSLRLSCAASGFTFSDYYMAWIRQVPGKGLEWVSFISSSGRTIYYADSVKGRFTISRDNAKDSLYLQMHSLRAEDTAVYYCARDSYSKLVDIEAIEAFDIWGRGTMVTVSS VL: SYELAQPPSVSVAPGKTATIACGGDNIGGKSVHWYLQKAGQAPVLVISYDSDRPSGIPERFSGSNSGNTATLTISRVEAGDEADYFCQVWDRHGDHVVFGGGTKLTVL

>  <READING>
27

$$$$
>  <BINDER>
1-150 (antibody, V domains shown) VH: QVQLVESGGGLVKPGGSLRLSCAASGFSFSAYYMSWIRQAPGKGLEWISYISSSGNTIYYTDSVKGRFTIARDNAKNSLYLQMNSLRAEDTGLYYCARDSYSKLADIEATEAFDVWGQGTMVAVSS VL: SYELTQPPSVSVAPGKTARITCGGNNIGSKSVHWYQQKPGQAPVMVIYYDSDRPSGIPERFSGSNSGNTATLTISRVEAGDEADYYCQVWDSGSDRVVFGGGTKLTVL

>  <READING>
-29

$$$$

Let us examine a further case.
Asked: Give the measured Pair-wise inhibition (%) of 1-32 (antibody, V domains shown) VH: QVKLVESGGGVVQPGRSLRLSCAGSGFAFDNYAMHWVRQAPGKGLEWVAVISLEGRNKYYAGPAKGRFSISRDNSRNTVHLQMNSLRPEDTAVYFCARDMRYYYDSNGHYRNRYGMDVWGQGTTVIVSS VL: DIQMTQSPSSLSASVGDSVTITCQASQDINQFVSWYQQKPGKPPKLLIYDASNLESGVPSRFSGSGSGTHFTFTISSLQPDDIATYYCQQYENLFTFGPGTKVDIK .
Given back: 97
